Catalogue of half-life readings, one per entry.
# run_conditions: rat; liver microsomes; pH 7.4; 15.0 min; 1.0 µM

| compound | half-life |
| --- | --- |
| Nc1c(C(=O)Nc2ccc(F)cc2)sc2nc(-c3cccs3)cc(C(F)(F)F)c12 | > 30 min |
| c1ccc2[nH]c(Nc3nc(-c4ccncc4)nc4ccccc34)nc2c1 | 13 min |
| COC(=O)CNC(=O)c1nc(-c2ccc([S+](C)(=O)[O-])cc2)c2cnccn12 | > 30 min |
| O=C(NCc1ccccc1)c1cn2cc(-c3ccccc3)sc2n1 | 24 min |
| CCCc1cc(=O)oc2c3c(c4c(c12)OC(C)(C)C=C4)OC(C)C(C)C3O (stereo unspecified) | 13.2 min |
| CC(C)(C)CN1CCNc2cc(Nc3ccccc3)ncc2C1 | 1.64 min |

###

As shown below, each of these compounds has a reported log10 of half-life value.
# run_conditions: rat; liver microsomes; pH 7.4; 15.0 min; 1.0 µM
reported_property: log10 of half-life (log10 of the value in min)

| compound | log10 of half-life |
| --- | --- |
| CCCCCn1c(CCCNC(=O)c2ccccc2OC)nc2ccccc21 | 0.12 |
| CCN(c1ccccc1)S(=O)(=O)c1cc(C(=O)Nc2ccc(Br)cc2)ccc1F | 0.18 |
| COc1cccc(CNCCSc2nnnn2C)c1OCc1ccc(Cl)cc1Cl | 0.13 |
| CCOc1ccc(CCNC(=O)c2cc3sccc3n2Cc2ccccn2)cc1OCC | 0.18 |
| O=[S+]([O-])(Nc1cccc2cccnc12)c1ccc(NCc2ccc(Cl)cc2O)cc1 | 0.38 |
| O=C(Nc1nc(-c2ccccc2)cs1)c1ccncc1NS(=O)(=O)c1ccc(Cl)cc1 | 1.26 |
| Cc1ccc(S(=O)(=O)Nc2cnccc2C(=O)Nc2nc(-c3nc4ccccc4s3)cs2)cc1 | 1.38 |
| CC(=O)N1CCN(c2ccc(OCc3nn(C)c(C)c3-c3cccc4c(CCCOc5cccc6ccccc56)c(C(=O)O)n(Cc5cccnc5)c34)cc2)CC1 | 1.18 |
| Cc1cc(-c2nnc3n2CCCCC3)c(C)n1-c1cccc(Cl)c1 | 0.29 |
| O=C(Nc1nc(-c2ccccc2)cs1)c1ccncc1NS(=O)(=O)c1ccc(F)cc1F | 0.81 |
| CCOC(=O)c1c(NC(=O)CN2CCCCC2)sc2c1CCN(C(=O)OCC)C2 | 0.72 |
| COc1ccc(CN2C(=O)[C@@H]3C[C@@H](CN3Cc3cccs3)Oc3ccccc32)cc1 | 0.08 |
| Clc1ccc(C2=Nn3c(nnc3-c3ccncc3)SC2)cc1 | 0.96 |
| Oc1ccc(CNc2cccc(F)c2)c2cccnc12 | 0.61 |
| Fc1cnc(-c2ccccc2C(F)F)nc1NCC1CCN(c2cnccn2)CC1 | 0.53 |
| O=[S+]([O-])(Nc1ccccc1)c1ccc(NCc2cccc(Cl)c2F)cc1 | 0.65 |
| Fc1ccc(CNc2nc(-c3ccccc3C(F)(F)F)nc3ccccc23)cc1 | 1.30 |
| CN1CCCN(C(c2ccccc2)c2ccc(Cl)cc2)CC1 (stereo unspecified) | 0.46 |
| Cc1ccc(S(=O)(=O)Nc2cccc(C(=O)Nc3nc(-c4ccccc4)cs3)c2Cl)cc1 | 1.18 |
| NC(=O)C1CCN(c2nc(-c3cccs3)cs2)CC1 | 0.60 |
| O=C1Cc2cc(C(=O)c3ccco3)ccc2N1 | 1.30 |
| Cc1nnc2n1-c1ccc(Cl)cc1C(c1ccccc1)=NC2 | 1.33 |
| Cc1nn2c(c1-c1ccccc1OCc1ccccc1)N(C(=O)Cc1ccc3c(c1)OCO3)CCC2 | 0.15 |
| Cc1ccc(N2CCC(CNc3nc(-c4ccccc4C(C)C)ncc3F)CC2)cn1 | 0.38 |
| [2H]C([2H])(Nc1nc(-c2ccccc2C([2H])(C([2H])([2H])[2H])C([2H])([2H])[2H])ncc1C)c1ccc(-n2ccnn2)cc1 | 1.11 |
| CC(=O)NCCNC[C@@H]1C=C(C)[C@H](Cc2nnc(-c3ccccc3)o2)C[C@H]1C(C)C | 0.70 |
| COc1ccccc1C(=O)Nc1ccccc1C(=O)Nc1cccc(SC(F)(F)F)c1 | 1.26 |
| Cc1cccc(N(C)c2nc3ccccc3c3nnc(C)n23)c1 | 0.20 |
| Nc1nc2c(s1)C(c1ccc(F)c(F)c1)CC(=O)N2 (stereo unspecified) | 1.47 |
| NC(=O)C1CCN(c2nc(-c3cccc(Cl)c3)cs2)CC1 | 0.27 |
| NC(=O)C1CCN(c2nc(-c3cccc(Br)c3)cs2)CC1 | 0.25 |

###

# run_conditions: rat; liver microsomes; pH 7.4; 15.0 min; 1.0 µM
We begin with a simple list: items and their reported log10(half-life).
reported_property: log10(half-life) (log10 of the value in min)

| compound | log10(half-life) |
| --- | --- |
| CCCOC(c1cc2nccc(C(=O)O)c2[nH]1)c1ccccc1Cl (stereo not given) | 1.36 |
| CCOc1ccc(CCNC(=O)c2cc3ccccc3n2Cc2ccccn2)cc1OCC | 0.18 |
| CN(Cc1ccccc1)C(=O)c1ccc(S(=O)(=O)Nc2ccccc2)cc1 | 0.21 |
| O=S(=O)(Nc1nccs1)c1ccc(NCc2cccc(F)c2O)cc1 | 1.20 |
| COc1cc(C2c3cc(O)c(OC)cc3CC3C(=O)OCC32)ccc1O (stereo not given) | 1.32 |
| COc1ccc(CCNc2ncnc3onc(C)c23)c(OC)c1 | 0.35 |

###

# run_conditions: rat; liver microsomes; pH 7.4; 15.0 min; 1.0 µM
compounds and their reported half-life
reported_property: half-life (min)

| compound | relation | assay_value |
| --- | --- | --- |
| Cc1cc(-c2nnc3n2CCCCC3)c(C)n1-c1ccc([N+](=O)[O-])cc1 | = | 2.5 |
| CN1CCN(C(c2ccccc2)c2ccccc2)CC1 | = | 2.56 |
| CCCCCn1cc2c(c1-c1ccc(Br)cc1)c(=O)n(C)c(=O)n2C | = | 6.39 |
| Nc1c(-c2ccncc2)cc[nH]c1=O | > | 30 |
| O=C(CCCN1CCC(O)(c2cccc(C(F)(F)F)c2)CC1)c1ccc(F)cc1 | = | 20.5 |
| Cc1c(C)n(Cc2ccccc2)c2ccc(C(=O)OCCN(C)C)cc12 | = | 1.78 |
| Cn1nnnc1Sc1ncnc2scc(-c3ccc(F)cc3)c12 | = | 10.7 |
| O=C1CCCC2=C1C(c1[nH]ncc1Cl)N=C(Nc1nc3cc(F)ccc3o1)N2 (configuration not stated) | = | 17 |
| O=C(O)C1CCN(c2ncc(-c3ccc4c(c3)OCCCO4)s2)CC1 | > | 30 |
| COc1cccc(CNc2ccc(S(=O)(=O)Nc3nccs3)cc2)c1OC | = | 11 |
| Cc1ccc(-c2nc3ccccc3o2)cc1NC(=O)COc1ccccc1 | = | 3.5 |
| O=C1Nc2cc(Cl)ccc2/C1=C\c1cc(Cl)c(O)c(Cl)c1 | > | 30 |
| CCc1ccccc1-n1c(SCC(=O)Nc2ccc(C)cc2)nc2n[nH]c(C)c2c1=N | = | 1.25 |
| COc1ccc(-c2csc(N3CCC(C(N)=O)CC3)n2)cc1 | = | 4.68 |
| COc1ccc(-n2nc(C3CCCN(C(=O)c4ccc(C)cc4)C3)[nH]c2=O)cc1 (configuration not stated) | = | 23.9 |
| COc1ccc(-c2ccc(C(=O)NC3CC(c4cc(=O)[nH]c(N)n4)C3)o2)cc1 (configuration not stated) | > | 30 |
| O=C(Nc1ncc(Cc2ccc(C(F)(F)F)cc2)s1)c1cnc(-c2ccccc2)o1 | > | 30 |
| O=C(NCc1ccc(S(=O)(=O)c2cccc(C(F)(F)F)c2)cc1)c1cnc2[nH]ncc2c1 | > | 30 |
| CC(C)(C)c1ccc(-c2ccc(=O)n(CC(=O)NCCc3ccccc3)n2)cc1 | = | 1.6 |
| COc1ccc(NC(=O)c2c(C)cccc2C)cc1S(=O)(=O)Nc1ccc(Br)cc1 | = | 5.2 |
| CN(C)[C@@H]1CCN(c2cccc(Nc3nn4c(=O)c5ccccc5nc4s3)c2)C1 | > | 30 |
| CN1C(=O)c2ccccc2[S@](=O)c2ccc(C(=O)NCCc3cccs3)cc21 | = | 7.2 |

###

half-life values, listed per item
# run_conditions: rat; liver microsomes; pH 7.4; 15.0 min; 1.0 µM

| compound | relation | half-life (min) |
| --- | --- | --- |
| CC1(C)CCC(CN2CCN(c3ccc(C(=O)NS(=O)(=O)c4ccc(NCC5CCOCC5)c([N+](=O)[O-])c4)c(Oc4cnc5[nH]ccc5c4)c3)CC2)=C(c2ccc(Cl)cc2)C1 | > | 30 |
| CCCS(=O)(=O)c1nc(NC2CC2)cc(-c2ccc3c(ccn3C3CC(C)(C)NC(C)(C)C3)c2)n1 | > | 30 |
| COC(=O)c1c(NC(=O)Cc2coc3cc(C)ccc23)sc2c1CCC2 | = | 2.31 |
| Cc1csc2nc(-c3cccc(NC(=O)c4ccccc4Cl)c3)cn12 | = | 0.9 |
| NC(=O)C1CCN(c2nc(-c3cccc([N+](=O)[O-])c3)cs2)CC1 | = | 2.3 |
| Cc1nc2ccc(Nc3nc(-c4ccncc4)nc4ccccc34)cc2s1 | = | 10 |
| COc1ccc(-n2nc(C3CCN(C(=O)Cc4ccc(F)cc4)CC3)[nH]c2=O)cc1 | = | 7.87 |
| Cc1cc(-c2nnc3n2CCCCC3)c(C)n1-c1ccc(Cl)c(Cl)c1 | = | 1.9 |
| O=S(=O)(c1ccccc1)c1nnn2c1nc(NCc1cccs1)c1sccc12 | = | 1.88 |
| CCc1cccc(-n2nnc(-c3nsc(NC(=O)c4cccc(OC)c4)n3)c2C)c1 | = | 12.8 |
| CC(C)Oc1cccc(-c2ccnc(N3CCC(C(N)=O)CC3)n2)c1 | = | 11.6 |
| O=C(NCCCNc1nc(Nc2cccc(NC(=O)N3CCCC3)c2)ncc1I)c1cccs1 | = | 1.87 |
| Fc1cccc(CNc2nc(-c3ccccc3C(F)(F)F)nc3ccccc23)c1 | = | 2.55 |
| CCCc1ccc(C(=O)NC(=O)c2ccccc2O)cc1 | = | 2.37 |
| Cc1ccc(S(=O)(=O)Nc2cnccc2C(=O)Nc2nc(-c3ccc(Cl)cc3)cs2)cc1 | > | 30 |
| COc1c(O)ccc2c1CN1CCc3cc4c(cc3[C@@H]1C2)OCO4 | = | 18.9 |
| C=Cc1ccc(Cn2c(C(=O)O)c(CNCc3ccccc3)c3ccc(OC)cc32)cc1 | = | 9.8 |
| N#Cc1cccc(Nc2ncc(-c3cccc4ccccc34)o2)c1 | > | 30 |
| Cc1nn(-c2ccccc2)c2nc(C3CC3)cc(C(=O)Nc3ccc(F)cc3)c12 | > | 30 |
| Cc1ccc(S(=O)(=O)Nc2cc(C(=O)Nc3nc(-c4ccccc4)cs3)ccn2)cc1 | > | 30 |
| COc1cccc(C(=O)Nc2nc(-c3nnn(-c4cc(C)ccc4C)c3C)ns2)c1 | = | 17.6 |
| O=C(NCCCn1ccnc1)c1ccc(-c2ncc3cnc(-c4cccc(F)c4)cn23)cc1 | = | 22.5 |
| C#CCNC(=O)c1nc(-c2ccc([S+](C)(=O)[O-])cc2)c2ccccn12 | > | 30 |
| COc1ccc(-c2ccc3nc(-c4ccccc4C)oc3c2)c(OC)c1OC | > | 30 |
| CC(=O)Nc1cccc(-c2csc(Nc3cc(C)ccn3)n2)c1 | > | 30 |
| O=C1Nc2cc(Cl)ccc2Nc2cscc21 | = | 21.8 |
| NC(=O)C1CCN(c2cc(-c3ccc4c(c3)OCCCO4)ncn2)CC1 | > | 30 |
| COc1ccccc1-c1cc2c(ccn2C)c(C(=O)NCC2CCN(C)C(=O)C2)n1 (configuration not stated) | > | 30 |
| O=C(NC1CC1)c1ccc(CSCc2ccccc2Cl)o1 | = | 1.74 |
| Cc1cccc(-n2ncc3c2CCCC3NC(=O)c2c(F)ccc(F)c2F)c1C (configuration not stated) | = | 0.96 |
| Fc1ccc(-c2ccc(Nc3nc(-c4ccncc4)nc4ccccc34)cc2F)cc1 | > | 30 |
| COc1ccc(-n2c(C)c(C(C)=O)c3cc(OC(=O)COc4ccccc4)ccc32)cc1 | = | 10.4 |
| CCNC(=O)Nc1ncc(-c2cc(-c3c(C)cc(OC)cc3C)nc(-c3cnccn3)n2)s1 | > | 30 |
| COC(=O)c1ccnc(-c2cc(C(=O)Nc3ccc(C4(N)CC4)cc3)ccn2)c1 | > | 30 |
| COc1c(O)cc2c(c1OC)-c1ccc(SC)c(=O)cc1C(NC(C)=O)CC2 (configuration not stated) | > | 30 |
| Cc1c([C@@H](C)C2NC[C@H](C)C[C@@H]2O)ccc2c1C[C@@H]1[C@H]2CC=C2C[C@@H](O)CC[C@@]21C (some centres not stated) | > | 30 |
| COc1ccc(C2=Nc3ccc(C)cc3C(c3ccccc3)N2CC(=O)NN)cc1 (configuration not stated) | = | 5.3 |
| O=C(c1ccc2ccccc2c1)N1CCN(c2ccc(O)cc2)CC1 | > | 30 |
| O=C(NCCCc1ccccc1)C1CCN(c2nc(-c3ccc(Br)cc3)cs2)CC1 | = | 2.96 |
| COc1cc(NS(=O)(=O)c2ccc(C)cc2)cc(C(=O)Nc2nc(-c3ccccc3)cs2)c1 | = | 13 |
| COCCCNC(=O)c1cc2cc(S(=O)(=O)N(C)C)ccc2n1C | = | 25 |
| Fc1ccc(CNc2nc(-c3ccncc3)nc3ccccc23)cc1F | = | 11 |
